Numbers sourced from patent US20260242478A1.

target: T1, PSMA Fab (006 PSMA Fab) (biotinylated (site not given)); test: clonal phage ELISA; biotinylated PSMA Fab on neutravidin plate, blocking buffer alone; anti-M13 HRP detection;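 also: crude clonal phage supernatants added without washing to wells pretreated with blocking buffer with or without PSMA antigen, short incubation, then washed before detecting bound phage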
T1 construct: also called Anti-PSMA Fab; anti-PSMA Fab
Where no end group is shown, it is not given here.
Recorded Phage binding ELISA signal, Anti-PSMA Fab, one value per entry.
readout-type: Phage binding ELISA signal, Anti-PSMA Fab

# binder, measured
data = [
    ("DVKWCIPSWMCQDV (cysteine pairing not given here; also: displayed on bacteriophage as fusion to pIII, fusion and linker not given here, Tested as clonal phage supernatant; also called Peptide-180 library clone) [Phage-2682]", 0.859),
    ("EAHLCKPLWMCEFG (cysteine pairing not given here; also: displayed on bacteriophage as fusion to pIII, fusion and linker not given here, Tested as clonal phage supernatant; also called Peptide-180 library clone) [Phage-2688]", 0.84),
    ("PMKLCSPPWMCFYD (cysteine pairing not given here; also: displayed on bacteriophage as fusion to pIII, fusion and linker not given here, Tested as clonal phage supernatant; also called Peptide-180 library clone) [Phage-2685]", 0.85),
    ("MGNWCTPSWMCEGL (cysteine pairing not given here; also: displayed on bacteriophage as fusion to pIII, fusion and linker not given here, Tested as clonal phage supernatant; also called Peptide-180 library clone) [Phage-2693]", 0.833),
    ("EYAWCIPEWMCGWI (cysteine pairing not given here; also: displayed on bacteriophage as fusion to pIII, fusion and linker not given here, Tested as clonal phage supernatant; also called Peptide-180 library clone) [Phage-2683]", 0.858),
    ("IVKWCTPPWMCERP (cysteine pairing not given here; also: displayed on bacteriophage as fusion to pIII, fusion and linker not given here, Tested as clonal phage supernatant; also called Peptide-180 library clone) [Phage-2691]", 0.834),
    ("SEAWCIPSWMCRGD (cysteine pairing not given here; also: fused to phage pIII (clonal phage display), Tested as clonal phage supernatant; also called Peptide-180 library clone) [Phage-2684]", 0.857),
    ("QNIRCVPPWMCENL (cysteine pairing not given here; also: displayed on bacteriophage as fusion to pIII, fusion and linker not given here, Tested as clonal phage supernatant; also called Peptide-180 library clone) [Phage-2686]", 0.844),
]
